Reported EC50 is given for each of the following compounds.
Tested on: T. brucei brucei (strain BF427)
experimental.details: In vitro parasite growth arrest assay (AlamarBlue)
Type: cell-based, Trypanosoma brucei brucei
stated.conditions: Trypanosoma brucei, selected hit compounds, Table 1; read-out: T. brucei EC50
Just the number please, in nM, no unit attached.

Worked examples follow.
COc1ccc(-c2c(C#N)c(SCc3ccccc3)nc(C)c2C(=O)Nc2ccccc2)cc1 [Scaffold 17] :: 3500
COCCN1C(=O)c2ccccc2C(C(=O)Nc2ccc(Oc3ccccc3)cc2)C1c1ccc(F)cc1 (centres unmarked) [Scaffold 14] :: 708
COc1cccc(C2N(c3ccccc3)N=C(C(C)=O)N2c2ccc(C)c(C)c2)c1OCc1ccccc1 (centres unmarked) [Scaffold 15] :: 1500
O=C(Nc1ccc(Cl)c(-c2nc3ncccc3o2)c1)c1ccco1 [Scaffold 1] :: 218

Please supply the value of reported EC50 for the item Fc1ccccc1C1C=C(c2cccnc2)Nc2nnnn21 (centres unmarked) [Scaffold 8]
214

Please supply the value of reported EC50 for the item O=C(CSc1nc2scc(-c3ccccc3)c2c(=O)n1-c1ccccc1)Nc1ccccc1F [Scaffold 16]
650

Please supply the value of reported EC50 for the item Cc1cc(C)c(NC(=O)c2cc(S(=O)(=O)N3CCOCC3)cn2C)c(C)c1 [Scaffold 13]
1000

Please supply the value of reported EC50 for the item COc1ccc(N2C(=O)CN(Cc3ccccc3)C2=S)cc1Cl [Scaffold 9]
346

====

experimental.details: Mammalian cell cytotoxicity assay (AlamarBlue, 48 h)
Format: cell-based
stated.conditions: human, CRL-8155 cells (lymphoblasts); Figure 5; read-out: Mammalian cell CC50
parameter.measured: CC50 at 48 h

Please supply the value of reported CC50 at 48 h for the item COc1cc(N2C(=O)CN(Cc3ccc(F)cc3Cl)C2=S)ccc1N(C)C [BA-738]
> 50 µM

====

Reported Kp at 1 h is given for each of the following molecules.
experimental.details: Brain permeability studies in mice (brain to plasma ratio)
Type: in vivo, mouse
stated.conditions: in vivo, 5 mg/kg; Figures 4 and 5; mouse; read-out: Brain:Plasma ratio

O=C(Nc1ccc2sc(-c3ccc(F)c(F)c3)nc2c1)N1CC[C@H](F)C1 :: 4

# context switch: different molecule, same Kp at 1 h
Please supply the value of reported Kp at 1 h for the item `O=C(NCCc1nc(-c2ccccc2)cs1)c1ccccc1`
0.3

====

Reported Kp at 60 min is given for each of the following compounds.
experimental.details: Brain permeability studies in mice (brain to plasma ratio)
Type: in vivo, mouse
stated.conditions: mouse, in vivo, 5 mg/kg; brain to plasma ratio at 60 min following IP dose; read-out: B/P Ratio (Mouse)
Method: Test compounds were injected (ip) at 5 mg/kg to three mice in a vehicle consisting of DMSO (5%), Tween 80 (7%), and EtOH (3%) in physiological saline (0.9%) solution [8]. At 1 h post injection, blood was collected, and plasma was separated by centrifugation. Simultaneously, the brain was removed and homogenized in acetonitrile. Concentrations of compound in the plasma and brain were determined via liquid chromatography/tandem mass spectrometry. […]
// no unit, no text: just the number

O=C(Nc1ccc(Cl)c(-c2nc3ncccc3o2)c1)c1ccco1 :: 0.547

# context switch: different compound, same Kp at 60 min
Please supply the value of reported Kp at 60 min for the item `O=C(NCCc1nc(-c2ccccc2)cs1)c1ccccc1`
0.3
